TARGET OR TEST SYSTEM: PD-1-Fc (human) (UniProt Q15116)
Sequence (Q15116 25-167 limits assumed): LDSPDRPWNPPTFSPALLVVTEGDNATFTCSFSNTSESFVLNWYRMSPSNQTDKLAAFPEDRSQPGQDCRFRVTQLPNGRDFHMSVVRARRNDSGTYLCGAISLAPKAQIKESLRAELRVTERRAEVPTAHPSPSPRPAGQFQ
ASSAY NOTES: ForteBio Octet, PD-1 on anti-human capture sensor, 100 nM
Label label 1 when Fortebio Response Units (Response Units) < 0.005; otherwise label 0.

BINDER | ANSWER LABEL
variant PD-L2 IgV E44D Fc fusion (Fc fusion) LFTVTVPKELYIIEHGSNVTLECNFDTGSHVNLGAITASLQKVDNDTSPHRERATLLEEQLPLGKASFHIPQVQVRDEGQYQCIIIYGVAWDYKYLTLKVKA | label 1
variant PD-L2 IgV H15Q/S67L/R76G/I85F Fc fusion (Fc fusion) LFTVTVPKELYIIEQGSNVTLECNFDTGSHVNLGAITASLQKVENDTSPHRERATLLEEQLPLGKALFHIPQVQVGDEGQYQCIFIYGVAWDYKYLTLKVKA | label 0
variant PD-L2 IgV H15Q/T47A Fc fusion (Fc fusion) LFTVTVPKELYIIEQGSNVTLECNFDTGSHVNLGAITASLQKVENDASPHRERATLLEEQLPLGKASFHIPQVQVRDEGQYQCIIIYGVAWDYKYLTLKVKA | label 0
variant PD-L2 IgV H15Q/V89D Fc fusion (Fc fusion) LFTVTVPKELYIIEQGSNVTLECNFDTGSHVNLGAITASLQKVENDTSPHRERATLLEEQLPLGKASFHIPQVQVRDEGQYQCIIIYGDAWDYKYLTLKVKA | label 0
variant PD-L2 IgV H15Q/K65R Fc fusion (Fc fusion) LFTVTVPKELYIIEQGSNVTLECNFDTGSHVNLGAITASLQKVENDTSPHRERATLLEEQLPLGRASFHIPQVQVRDEGQYQCIIIYGVAWDYKYLTLKVKA | label 1
variant PD-L2 IgV I13V/H15Q/T47A/R76G/V89D Fc fusion (Fc fusion) LFTVTVPKELYIVEQGSNVTLECNFDTGSHVNLGAITASLQKVENDASPHRERATLLEEQLPLGKASFHIPQVQVGDEGQYQCIIIYGDAWDYKYLTLKVKA | label 0
variant PD-L2 IgV I13V/H15Q/T37A/E44D/S48C/S67L/Q82R/V89D Fc fusion (Fc fusion) LFTVTVPKELYIVEQGSNVTLECNFDTGSHVNLGAIAASLQKVDNDTCPHRERATLLEEQLPLGKALFHIPQVQVRDEGQYRCIIIYGDAWDYKYLTLKVKA | label 0
variant PD-L2 IgV N24D Fc fusion (Fc fusion) LFTVTVPKELYIIEHGSNVTLECDFDTGSHVNLGAITASLQKVENDTSPHRERATLLEEQLPLGKASFHIPQVQVRDEGQYQCIIIYGVAWDYKYLTLKVKA | label 1
